Test system: HeLa Kyoto;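 note: synchronized HeLa Kyoto cells, proteins quantified by TMT10plex mass spectrometry, three biological replicates, mitosis taken 0.5 h after nocodazole release, G1/S directly after double thymidine block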
Assay: thermal stability score vs G1/S (z-score of summed log2 fold changes over temperatures); higher = more thermally stable than in G1/S
Settings: cell cycle stage: mitosis
The entries below come with measured thermal stability score values attached.

[
  {
    "SEQUENCE_DATA": "MRDRTHELRQGDDSSDEEDKERVALVVHPGTARLGSPDEEFFHKVRTIRQTIVKLGNKVQELEKQQVTILATPLPEESMKQELQNLRDEIKQLGREIRLQLKAIEPQKEEADENYNSVNTRMRKTQHGVLSQQFVELINKCNSMQSEYREKNVERIRRQLKITNAGMVSDEELEQMLDSGQSEVFVSNILKDTQVTRQALNEISARHSEIQQLERSIRELHDIFTFLATEVEMQGEMINRIEKNILSSADYVERGQEHVKTALENQKKARKKKVLIAICVSITVVLLAVIIGVTVVG [STX4]",
    "thermal stability score": 0.313
  },
  {
    "SEQUENCE_DATA": "MVEKEEAGGGISEEEAAQYDRQIRLWGLEAQKRLRASRVLLVGLKGLGAEIAKNLILAGVKGLTMLDHEQVTPEDPGAQFLIRTGSVGRNRAEASLERAQNLNPMVDVKVDTEDIEKKPESFFTQFDAVCLTCCSRDVIVKVDQICHKNSIKFFTGDVFGYHGYTFANLGEHEFVEEKTKVAKVSQGVEDGPDTKRAKLDSSETTMVKKKVVFCPVKEALEVDWSSEKAKAALKRTTSDYFLLQVLLKFRTDKGRDPSSDTYEEDSELLLQIRNDVLDSLGISPDLLPEDFVRYCFSEMAPVCAVVGGILAQEIVKALSQRDPPHNNFFFFDGMKGNGIVECLGPK [SAE1]",
    "thermal stability score": 0.096
  },
  {
    "SEQUENCE_DATA": "MAAAAAAAAAAGAAGGRGSGPGRRRHLVPGAGGEAGEGAPGGAGDYGNGLESEELEPEELLLEPEPEPEPEEEPPRPRAPPGAPGPGPGSGAPGSQEEEEEPGLVEGDPGDGAIEDPELEAIKARVREMEEEAEKLKELQNEVEKQMNMSPPPGNAGPVIMSIEEKMEADARSIYVGNVDYGATAEELEAHFHGCGSVNRVTILCDKFSGHPKGFAYIEFSDKESVRTSLALDESLFRGRQIKVIPKRTNRPGISTTDRGFPRARYRARTTNYNSSRSRFYSGFNSRPRGRVYRGRARATSWYSPY [PABPN1]",
    "thermal stability score": 2.2
  },
  {
    "SEQUENCE_DATA": "MGEIKVSPDYNWFRGTVPLKKIIVDDDDSKIWSLYDAGPRSIRCPLIFLPPVSGTADVFFRQILALTGWGYRVIALQYPVYWDHLEFCDGFRKLLDHLQLDKVHLFGASLGGFLAQKFAEYTHKSPRVHSLILCNSFSDTSIFNQTWTANSFWLMPAFMLKKIVLGNFSSGPVDPMMADAIDFMVDRLESLGQSELASRLTLNCQNSYVEPHKIRDIPVTIMDVFDQSALSTEAKEEMYKLYPNARRAHLKTGGNFPYLCRSAEVNLYVQIHLLQFHGTKYAAIDPSMVSAEELEVQKGSLGISQEEQ [SPG21]",
    "thermal stability score": 0.524
  },
  {
    "SEQUENCE_DATA": "MLPLLRCVPRVLGSSVAGLRAAAPASPFRQLLQPAPRLCTRPFGLLSVRAGSERRPGLLRPRGPCACGCGCGSLHTDGDKAFVDFLSDEIKEERKIQKHKTLPKMSGGWELELNGTEAKLVRKVAGEKITVTFNINNSIPPTFDGEEEPSQGQKVEEQEPELTSTPNFVVEVIKNDDGKKALVLDCHYPEDEVGQEDEAESDIFSIREVSFQSTGESEWKDTNYTLNTDSLDWALYDHLMDFLADRGVDNTFADELVELSTALEHQEYITFLEDLKSFVKSQ [C1QBP]",
    "thermal stability score": -3.14
  },
  {
    "SEQUENCE_DATA": "MAELDIGQHCQVEHCRQRDFLPFVCDDCSGIFCLEHRSRESHGCPEVTVINERLKTDQHTSYPCSFKDCAERELVAVICPYCEKNFCLRHRHQSDHECEKLEIPKPRMAATQKLVKDIIDSKTGETASKRWKGAKNSETAAKVALMKLKMHADGDKSLPQTERIYFQVFLPKGSKEKSKPMFFCHRWSIGKAIDFAASLARLKNDNNKFTAKKLRLCHITSGEALPLDHTLETWIAKEDCPLYNGGNIILEYLNDEEQFCKNVESYLE [ZFAND1]",
    "thermal stability score": 1.54
  },
  {
    "SEQUENCE_DATA": "MAGRLLGKALAAVSLSLALASVTIRSSRCRGIQAFRNSFSSSWFHLNTNVMSGSNGSKENSHNKARTSPYPGSKVERSQVPNEKVGWLVEWQDYKPVEYTAVSVLAGPRWADPQISESNFSPKFNEKDGHVERKSKNGLYEIENGRPRNPAGRTGLVGRGLLGRWGPNHAADPIITRWKRDSSGNKIMHPVSGKHILQFVAIKRKDCGEWAIPGGMVDPGEKISATLKREFGEEALNSLQKTSAEKREIEEKLHKLFSQDHLVIYKGYVDDPRNTDNAWMETEAVNYHDETGEIMDNLMLEAGDDAGKVKWVDINDKLKLYASHSQFIKLVAEKRDAHWSEDSEADCHAL [NUDT9]",
    "thermal stability score": -0.161
  },
  {
    "SEQUENCE_DATA": "MSTKNFRVSDGDWICPDKKCGNVNFARRTSCNRCGREKTTEAKMMKAGGTEIGKTLAEKSRGLFSANDWQCKTCSNVNWARRSECNMCNTPKYAKLEERTGYGGGFNERENVEYIEREESDGEYDEFGRKKKKYRGKAVGPASILKEVEDKESEGEEEDEDEDLSKYKLDEDEDEDDADLSKYNLDASEEEDSNKKKSNRRSRSKSRSSHSRSSSRSSSPSSSRSRSRSRSRSSSSSQSRSRSSSRERSRSRGSKSRSSSRSHRGSSSPRKRSYSSSSSSPERNRKRSRSRSSSSGDRKKRRTRSRSPERRHRSSSGSSHSGSRSSSKKK [ZRANB2]",
    "thermal stability score": 0.397
  },
  {
    "SEQUENCE_DATA": "MQDTGSVVPLHWFGFGYAALVASGGIIGYVKAGSVPSLAAGLLFGSLAGLGAYQLSQDPRNVWVFLATSGTLAGIMGMRFYHSGKFMPAGLIAGASLLMVAKVGVSMFNRPH [TMEM14C]",
    "thermal stability score": "-4.49e-20"
  },
  {
    "SEQUENCE_DATA": "MTERFDCHHCNESLFGKKYILREESPYCVVCFETLFANTCEECGKPIGCDCKDLSYKDRHWHEACFHCSQCRNSLVDKPFAAKEDQLLCTDCYSNEYSSKCQECKKTIMPGTRKMEYKGSSWHETCFICHRCQQPIGTKSFIPKDNQNFCVPCYEKQHAMQCVQCKKPITTGGVTYREQPWHKECFVCTACRKQLSGQRFTARDDFAYCLNCFCDLYAKKCAGCTNPISGLGGTKYISFEERQWHNDCFNCKKCSLSLVGRGFLTERDDILCPDCGKDI [FHL2]",
    "thermal stability score": -1.97
  }
]
